B1: SAT2 (parent)
chain: LTEAEGWHFFCFQGEATRKLAGK

Variants of: B1
ASSAY_PROCEDURE: protein stability index of a GFP-peptide fusion (GPS, HEK-293T) (PSI 1-6); higher = more stable;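 note: lentivirally expressed fusions sorted by FACS into six bins by GFP to DsRed ratio, PSI derived from sequencing read proportions per bin multiplied by bin number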
TEST_CONTEXT: c terminus: native
// classify(record): look up protein stability index in ranges A = under 2, B = from 2 up to 3, C = 3 and over

G14L : A

Input line: Quick check: band for L20G
Output line: C

Input line: For the record A21E , report the class its protein stability index corresponds to.
Output line: B

Sourced from the supplement of paper PMC10567573
